# System: U-2932
# assay.remarks: growth inhibition by drug alone (1 - RLU/untreated control) (fraction); higher = stronger inhibition
# applied.conditions: 10 nM; time (day): 3; 177Lu-lilotomab satetraxetan 0 ug/ml
measurement.label: growth inhibition by drug alone

compound	meas.value
C#Cc1cccc(Nc2ncnc3cc(OC)c(OCCCCCCC(=O)NO)cc23)c1	-0.0221
O=C(NC1CCNCC1)c1n[nH]cc1NC(=O)c1c(Cl)cccc1Cl	0.0998
CCn1c(-c2nonc2N)nc2cnc(Oc3cccc(NC(=O)c4ccc(OCCN5CCOCC5)cc4)c3)cc21	-0.134
C=CCc1cccc(/C=N/NC(=O)CN2CCN(Cc3ccccc3)CC2)c1O	0.126
CN1C(=O)C(Cc2c[nH]c3ccccc23)NC1=S (stereo not given) [Necrostatin-1]	0.00216

###

# Test system: U-2932
# assay.remarks: growth inhibition by drug plus 177Lu-lilotomab satetraxetan (1 - RLU/untreated control) (fraction); higher = stronger inhibition
# applied.conditions: 1000 nM; time (day): 5; 177Lu-lilotomab satetraxetan 1 ug/ml
Where a name gives a salt, the structure may show the parent alone.
Please enter fulfilled where growth inhibition by drug plus 177Lu-lilotomab satetraxetan is greater than or equal to 0.1, and not fulfilled where it is lower.

compound	discrete.label
CS(=O)(=O)c1cccc(CNc2nc(Nc3ccc4c(c3)CCC(=O)N4)ncc2C(F)(F)F)c1	fulfilled
CCC[C@H](NC(=O)/C(C#N)=C/c1cccc(Br)n1)c1ccccc1	fulfilled
O=C(Cc1ccc(-c2ccc(OCCN3CCOCC3)cc2)cn1)NCc1ccccc1	fulfilled
COc1c(C)cnc(Cn2cnc3c(Cl)nc(N)nc32)c1C	fulfilled
COc1ccc(-c2oc3cc(OC)ccc3c2C(=O)c2ccc(C#N)cc2)cc1	not fulfilled
O=C(c1cc(Cc2n[nH]c(=O)c3ccccc23)ccc1F)N1CCN(C(=O)C2CC2)CC1	fulfilled
Nc1[nH]nc2nnc(-c3c(-c4ccccc4)nn4ccccc34)cc12	fulfilled
Cc1c(C(=O)Nc2ccc(N3C[C@@H](C)O[C@@H](C)C3)nc2)cccc1-c1ccc(OC(F)(F)F)cc1	fulfilled
COc1ccc(/C=C\c2cc(OC)c(OC)c(OC)c2)cc1O	fulfilled
CC(C)(C)c1ccc(S(=O)(=O)/C=C/C#N)cc1	fulfilled
COc1cc2ncnc(-n3nc(-c4ccccn4)nc3N)c2cc1OC	not fulfilled
Cc1cnc(NC(=O)Nc2cc(Br)c(C)cc2OC[C@@H]2CNCCO2)cn1	fulfilled
CS(=O)(=O)N1CCc2c(-c3cnc(N)nc3)nc(N3CCOCC3)nc21	fulfilled
Cn1cnc([N+](=O)[O-])c1Sc1ncnc2[nH]cnc12	fulfilled
Nc1ncn([C@H]2C[C@H](O)[C@@H](CO)O2)c(=O)n1	fulfilled
Cc1ccc(C(=O)N(CCCN)[C@@H](c2oc3cc(Cl)ccc3c(=O)c2Cc2ccccc2)C(C)C)cc1	fulfilled
CC[C@]1(O)C[C@H]2CN(CCc3c([nH]c4ccccc34)[C@@](C(=O)OC)(c3cc4c(cc3OC)N(C=O)[C@H]3[C@@](O)(C(=O)OC)[C@H](OC(C)=O)[C@]5(CC)C=CCN6CC[C@]43[C@@H]65)C2)C1	fulfilled
N#CC(c1ccnc(NCCc2cccnc2)n1)c1nc2ccccc2s1 (centres undefined)	not fulfilled
Cc1ccnc(NS(=O)(=O)c2ccc(NC(=O)Nc3ccc(S(=O)(=O)Nc4nccc(C)n4)cc3)cc2)n1	fulfilled
C[C@]1(c2nc3c(C(N)=O)cccc3[nH]2)CCCN1	not fulfilled
COCC[n+]1c2c(n(Cc3cnccn3)c1C)C(=O)c1ccccc1C2=O	fulfilled
C[C@]12CC[C@@H]3c4ccc(O)cc4C[C@@H](CCCCCCCCC[S+]([O-])CCCC(F)(F)C(F)(F)F)[C@H]3[C@@H]1CC[C@@H]2O (some centres undefined)	not fulfilled
C[C@]12CC[C@@H]3c4ccc(O)cc4CC[C@H]3[C@@H]1CC[C@@H]2O	fulfilled
CC(C)C[C@H](NC(=O)CNC(=O)c1cc(Cl)ccc1Cl)B(O)O	fulfilled
CC(=O)O[C@H]1C(=O)[C@@]2(C)[C@H]([C@H](OC(=O)c3ccccc3)[C@]3(O)C[C@H](OC(=O)[C@H](O)[C@@H](NC(=O)c4ccccc4)c4ccccc4)C(C)=C1C3(C)C)[C@]1(OC(C)=O)CO[C@@H]1C[C@@H]2O	fulfilled
O=c1cc(N2CCOCC2)oc2c(-c3cccc4c3sc3ccccc34)cccc12	fulfilled
CNC(=O)c1cc(Oc2ccc(NC(=O)Nc3cc(C(C)(C)C)nn3-c3ccc4ncccc4c3)c(F)c2)ccn1 [DCC-2036 (Rebastinib)]	fulfilled
C[N+](C)([O-])CCNc1ccc(NCC[N+](C)(C)[O-])c2c1C(=O)c1c(O)ccc(O)c1C2=O [Banoxantrone dihydrochloride]	fulfilled
O=C(O)CCCc1ccccc1 [4-Phenylbutyrate]	fulfilled
CC(C)c1ccc(Cn2ccc3c4c(N)nc(NC5CC5)nc4ccc32)cc1	fulfilled
Clc1ccc(Nc2nnc(Cc3ccncc3)c3ccccc23)cc1 [Vatalanib dihydrochloride (PTK787)]	not fulfilled
COc1cc2c(NC3CCN(C)CC3)nc(N3CCCN(C)CC3)nc2cc1OCCCN(C)C	not fulfilled
N#Cc1c(O)c2c(-c3ccc(-c4ccccc4O)cc3)csc2[nH]c1=O	fulfilled
CN(C)c1nc(N(C)C)nc(N(C)C)n1	not fulfilled

###

Recorded measurements of growth inhibition by drug alone, one per entry
# Test system: RIVA
# assay.remarks: growth inhibition by drug alone (1 - RLU/untreated control) (fraction); higher = stronger inhibition
# applied.conditions: 10 nM; time (day): 4; 177Lu-lilotomab satetraxetan 0 ug/ml

compound	growth inhibition by drug alone
Cc1[nH]c(/C=C2\C(=O)Nc3ccc(S(=O)(=O)N(C)c4cccc(Cl)c4)cc32)c(C)c1C(=O)N1CCN(C)CC1	-0.174
CC(C)C(=O)Nc1ccc([N+](=O)[O-])c(C(F)(F)F)c1 [Flutamide (Eulexin)]	0.106
COc1cc(Nc2ncc3c(n2)-c2ccc(Cl)cc2C(c2c(F)cccc2OC)=NC3)ccc1C(=O)O [MLN8237 (Alisertib)]	-0.0776
CCC(CC)CC1(C(=O)Nc2ccccc2SC(=O)C(C)C)CCCCC1	-0.101
COc1ccc2c(c1)CCC1C2CCC2(C)C(NCCCCCCN3C(=O)C=CC3=O)CCC12 (centres undefined)	-0.062
CNC(=O)c1ccc(C)c(-n2c(C)cc(OCc3ccc(F)cc3F)c(Br)c2=O)c1	-0.212
Nc1ncn([C@@H]2O[C@H](CO)[C@@H](O)[C@H]2O)c(=O)n1 [Azacitidine (Vidaza)]	-0.286
COC(=O)Nc1nc2cc(C(=O)c3cccs3)ccc2[nH]1 [Nocodazole]	-0.0388
Nc1ncn([C@H]2C[C@H](O)[C@@H](CO)O2)c(=O)n1 [Decitabine]	0.0484
Cc1ccc(F)c(NC(=O)Nc2ccc(-c3cccc4[nH]nc(N)c34)cc2)c1 [Linifanib (ABT-869)]	-0.109
C[C@@H]1CN(CC(=O)Nc2ccc3c(c2)Cc2cccc(-c4cc(=O)cc(N5CCOCC5)o4)c2S3)C[C@H](C)O1	-0.0829
Cc1nn(-c2ccccc2)c(C)c1C=NN1CCN(Cc2ccccc2)CC1	-0.164
CN1CCN(c2cccc(Nc3nc4c(-c5ccc(S(C)(=O)=O)cc5)cccn4n3)c2)CC1	-0.0683
Cc1csc(-c2nnc(Nc3ccc(Oc4ncccc4-c4ccnc(N)n4)cc3)c3ccccc23)c1	-0.0253
Cc1c(C(=O)Nc2ccc(N3C[C@@H](C)O[C@@H](C)C3)nc2)cccc1-c1ccc(OC(F)(F)F)cc1 [LDE225 (NVP-LDE225, Erismodegib)]	-0.00347
CC(=O)c1c(C)c2cnc(Nc3ccc(N4CCNCC4)cn3)nc2n(C2CCCC2)c1=O	-0.0722
CS(=O)(=O)N1CCc2c(-c3cnc(N)nc3)nc(N3CCOCC3)nc21	0.0286
COc1cc2c(cc1OC)CN(CCc1ccc(NC(=O)c3cccc4c(=O)c5cccc(OC)c5[nH]c34)cc1)CC2 [Elacridar]	-0.178
CCOc1ccc(Nc2nc(-c3c(C)nc4ccccn34)cs2)cc1	0.0644
N#Cc1c(O)c2c(-c3ccc(-c4ccccc4O)cc3)csc2[nH]c1=O	-0.0012
CC(C)c1onc(-c2c(Cl)cccc2Cl)c1COc1ccc(/C=C/c2cccc(C(=O)O)c2)c(Cl)c1	0.0681
O=C(O)C1(C(=O)O)CCC1.[NH2-].[NH2-].[Pt+2] [Carboplatin]	-0.143
CN(c1ncccc1CNc1nc(Nc2ccc3c(c2)CC(=O)N3)ncc1C(F)(F)F)S(C)(=O)=O	0.0431
CC#C[C@]1(O)CC[C@H]2[C@@H]3CCC4=CC(=O)CCC4=C3[C@@H](c3ccc(N(C)C)cc3)C[C@@]21C [Mifepristone (Mifeprex)]	-0.283
Cc1cc(O)c2c(c1)C(=O)c1cccc(O)c1C2=O [Chrysophanic acid (Chrysophanol)]	-0.269
COc1ccc(-c2oc3cc(OC)ccc3c2C(=O)c2ccc(C#N)cc2)cc1	-0.0513
CC[C@]1(O)C[C@H]2CN(CCc3c([nH]c4ccccc34)[C@@](C(=O)OC)(c3cc4c(cc3OC)N(C=O)[C@H]3[C@@](O)(C(=O)OC)[C@H](OC(C)=O)[C@]5(CC)C=CCN6CC[C@]43[C@@H]65)C2)C1 [Vincristine]	0.955
CC(C)(C)c1[nH]cnc1/C=c1\[nH]c(=O)/c(=C/c2ccccc2)[nH]c1=O [NPI-2358 (Plinabulin)]	-0.0503
CCN(CC)CCCC(C)Nc1nc(C)cc(Nc2ccc3nc(C)cc(N)c3c2)n1 (centres undefined)	-0.0225
O=c1cc(-c2cccc3c2Sc2ccccc2S3)oc(N2CCOCC2)c1	-0.223
Cc1ccc(NC(=O)c2ccc(CN3CC[C@H](N(C)C)C3)c(C(F)(F)F)c2)cc1Nc1nccc(-c2cncnc2)n1 [Bafetinib (INNO-406)]	0.204
Oc1nc(-c2ccc(C(F)(F)F)cc2)nc2c1CSCC2	-0.067
Cc1ccc([N+](=O)[O-])cc1S(=O)(=O)N(C)/N=C/c1cnc2ccc(Br)cn12	0.193
C[C@H](NC(=O)Cc1cc(F)cc(F)c1)C(=O)N[C@@H]1C(=O)N(C)c2ccccc2-c2ccccc21	-0.261
